- Assay Method Text: chemical genetic growth profiling, strain panel (AID 1159580);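 further: tested at 20 µM; growth read once vehicle control cultures reached saturation at 30 °C; 1 = growth at the plate median or of vehicle wells; lower values mean less growth of the strain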
- Condition Description: S. cerevisiae deletion strains, growth OD, locus YOR083W, strain WHI5 (second series)
In all, about 5,500 compounds went through this assay and about 2,000 (36%) were called active. About 18% were inconclusive and are not listed. No stated cut-off is given here; in the data, active means normalized growth mostly below about 0.91 (no sharp cut-off); inconclusive means no clear call, values can overlap the other calls; inactive means mostly above about 0.92. The list shows a part of the results.
Respond using exactly one of the listed classes: active, inactive

Solved cases (2 shown):
>  <Compound>
OC1(c2ccc(Cl)cc2)CCN(Cc2c[nH]c3ccccc23)CC1

>  <Discrete Label>
inactive

$$$$
>  <Compound>
Cc1cccc(C2CN(C)CCc3c2cc(O)c(O)c3Cl)c1 (stereo unspecified)

>  <Discrete Label>
inactive

$$$$

stdin: Recorded test call requested for NC1CCN(O)C1=O (stereo unspecified)
stdout: inactive

stdin: Could you check what this test reported for CC(C)(O)C1C2OC(=O)C1C1(O)CC3OC34C(=O)OC2C14C (stereo unspecified) (tested in a mixture with another compound) ?
stdout: active

stdin: Hi, sorry to bother you, what did the test record for C=CCN1CCc2c(cc(O)c(O)c2Br)[C@@H](c2ccccc2)C1 ?
stdout: inactive

* * *

- Assay Method Text: chemical genetic growth profiling, strain panel (AID 1159580)
- Condition Description: S. cerevisiae deletion strains, growth OD, locus YML032C, strain rad52, hits give low values
The whole screen tested about 5,500 compounds, of which about 2,000 (36%) were called active. About 18% were inconclusive and are not listed. The list shows a part of the results.
Readout Kind: normalized growth
Numbers only.

Reference set (4 entries):
>  <Molecule>
CCOC(=O)CCC(=O)O[C@H]1[C@H](O[C@@H]2[C@@H](C)[C@H](O[C@H]3C[C@@](C)(OC)[C@@H](O)[C@H](C)O3)[C@@H](C)C(=O)O[C@H](CC)[C@@](C)(O)[C@H](O)[C@@H](C)C(=O)[C@H](C)C[C@@]2(C)O)O[C@H](C)C[C@@H]1N(C)C

>  <Readout Kind>
normalized growth

>  <Value>
0.982

$$$$
>  <Molecule>
CCC(=O)O[C@H]1[C@H](O[C@@H]2[C@@H](C)[C@H](O[C@H]3C[C@@](C)(OC)[C@@H](O)[C@H](C)O3)[C@@H](C)C(=O)O[C@H](CC)[C@@](C)(O)[C@H](O)[C@@H](C)C(=O)[C@H](C)C[C@@]2(C)O)O[C@H](C)C[C@@H]1N(C)C

>  <Readout Kind>
normalized growth

>  <Value>
0.946

$$$$
>  <Molecule>
OCC(O)C(O)C(O)CO (stereo not given)

>  <Readout Kind>
normalized growth

>  <Value>
0.996

$$$$
>  <Molecule>
C=Cc1c2[nH]c(c1C)C=c1[nH]c(c(C)c1C=C)=CC1N=C(C=c3[nH]c(c(C)c3CCC(=O)O)=C2)C(CCC(=O)O)=C1C (stereo not given)

>  <Readout Kind>
normalized growth

>  <Value>
1.01

$$$$

stdin: // lookup normalized growth for COC1=C(OC)C(=O)C(C/C=C(\C)CC/C=C(\C)CC/C=C(\C)CC/C=C(/C)CC/C=C(\C)CC/C=C(\C)CC/C=C(\C)CC/C=C(\C)CC/C=C(\C)CCC=C(C)C)=C(C)C1=O
stdout: 0.971

* * *

I'd be grateful if you could share measured normalized growth for these entries.
- Assay Method Text: chemical genetic growth profiling, strain panel (AID 1159580)
- Condition Description: S. cerevisiae deletion strains, growth OD, locus YNR049C, strain mso1, hits give low values
About 2,000 (36%) of roughly 5,500 compounds were called active. Roughly 18% stayed inconclusive and do not appear here. This is one part of the list.

Some compounds with recorded normalized growth:
>  <Compound>
CC(=O)OCC(=O)[C@@]1(O)CCC2C3CCC4=CC(=O)CC[C@]4(C)C3C(=O)C[C@@]21C (some centres undefined)

>  <normalized growth>
0.977 (inactive)

$$$$
>  <Compound>
CC1=C(/C=C/C(C)=C/C=C/C(C)=C/C=C/C=C(C)/C=C/C=C(C)/C=C/C2=C(C)C(=O)C(O)CC2(C)C)C(C)(C)CC(O)C1=O (centres undefined)

>  <normalized growth>
1.06 (inactive)

$$$$
>  <Compound>
C[N+](C)(C)CCOC(N)=O

>  <normalized growth>
1.02 (inactive)

$$$$
>  <Compound>
CS(=O)(=O)c1ccc(C2=C(c3ccccc3)C(=O)OC2)cc1

>  <normalized growth>
0.964 (inactive)

$$$$
>  <Compound>
CC1=C(/C=C/C(C)=C/C=C/C(C)=C/C=C/C=C(C)/C=C/C=C(C)/C=C/C2=C(C)C(=O)CCC2(C)C)C(C)(C)CCC1=O

>  <normalized growth>
0.965 (inactive)

$$$$
>  <Compound>
COc1cc(/C=C/C(=O)/C=C(O)/C=C/c2ccc(O)c(OC)c2)ccc1O

>  <normalized growth>
0.175 (active)

$$$$
>  <Compound>
CC(=O)OCC(=O)[C@H]1CCC2C3CCC4=CC(=O)CC[C@]4(C)C3CC[C@@]21C (some centres undefined)

>  <normalized growth>
0.989 (inactive)

$$$$
>  <Compound>
CC(Oc1ccccc1)C(=O)N[C@@H]1C(=O)N2[C@@H]1SC(C)(C)[C@@H]2C(=O)O (some centres undefined)

>  <normalized growth>
0.992 (inactive)

$$$$

Consider now this further compound.
stdin: Consider the compound COc1cc(O)c(C(=O)/C=C/c2ccc(O)c(OC)c2)c(OC)c1 and give its measured normalized growth.
stdout: 0.977 (inactive)

* * *

- Assay Method Text: chemical genetic growth profiling, strain panel (AID 1159580);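 further: tested at 20 µM; growth read once vehicle control cultures reached saturation at 30 °C; 1 = growth at the plate median or of vehicle wells; lower values mean less growth of the strain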
- Condition Description: S. cerevisiae deletion strains, growth OD, locus YJL095W, strain BCK1
In all, about 5,500 compounds went through this assay and about 2,000 (36%) were called active. Another 18% or so got no clear call; they are omitted. Rule as the data show it: active = normalized growth mostly below about 0.91 (no sharp cut-off); inconclusive = no clear call, values can overlap the other calls; inactive = mostly above about 0.92. The list shows a part of the results.
Write down one outcome, taken from True (active), False (inactive)

Worked cases, answers included:
>  <Compound>
CN1CCc2cc3c(cc2[C@H]1C1OC(=O)c2c1ccc1c2OCO1)OCO3 (stereo partly drawn)

>  <Discrete Label>
False

$$$$
>  <Compound>
C=C1C([C@]2(C)C(CC(=O)OC)[C@@](C)(COC(C)=O)OC(=O)C[C@@H]2OC(C)=O)[C@@H](OC=O)[C@H](OC(=O)C(OC(C)=O)C(C)CC)[C@@]2(C)[C@H](c3ccoc3)CC(=O)C12O (stereo partly drawn)

>  <Discrete Label>
False

$$$$

stdin: GET /call?item= Cc1ccccc1C(=O)Oc1ccc(C(F)(F)F)cc1[N+](=O)[O-] returns the recorded outcome of this test.
stdout: False

stdin: For this compound, state the assay outcome: CC(=O)NC1SCCC1=O (stereo not drawn)
stdout: False

stdin: I'd appreciate the recorded outcome for COc1cc(O)c(C(=O)/C=C/c2ccccc2)c(OC)c1 from this test.
stdout: True

stdin: Returns: the outcome recorded for COc1cc(/C=C/C(=O)/C=C(O)/C=C/c2ccc(O)c(OC)c2)ccc1O in this assay.
stdout: True

stdin: # lookup: test call for O=C(Oc1ccc(C(F)(F)F)cc1[N+](=O)[O-])c1cccc(Cl)c1
stdout: True

stdin: What outcome does the record of this test show for C=C1C([C@]2(C)C(CC(=O)OC)[C@@](C)(COC(C)=O)OC(=O)C[C@@H]2OC(C)=O)[C@@H](OC=O)[C@H](OC(=O)C(O)C(C)CC)[C@@]2(C)[C@H](c3ccoc3)CC(=O)C12O (stereo partly drawn) ?
stdout: False

* * *

- Assay Method Text: chemical genetic growth profiling, strain panel (AID 1159580);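 further: tested at 20 µM; growth read once vehicle control cultures reached saturation at 30 °C; 1 = growth at the plate median or of vehicle wells; lower values mean less growth of the strain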
- Condition Description: S. cerevisiae deletion strains, growth OD, locus YHR027C, strain rpn1
Hit rate of the full screen: of about 5,500 compounds, about 2,000 (36%) were called active. Another 18% or so got no clear call; they are omitted. No stated cut-off is given here; in the data, active means normalized growth mostly below about 0.91 (no sharp cut-off); inconclusive means no clear call, values can overlap the other calls; inactive means mostly above about 0.92. This is one part of the list.
Lab note: assign the record to one of active, inactive

Previously resolved entries follow.
>  <Molecule>
CN[C@@H](C)[C@@H](O)c1ccccc1

>  <Discrete Label>
inactive

$$$$
>  <Molecule>
CN(C)c1ccc(C(=C2C=CC(=[N+](C)C)C=C2)c2ccc(N(C)C)cc2)cc1

>  <Discrete Label>
active

$$$$
>  <Molecule>
CCCCCCCCCCCCCCCC(=O)OC/C=C(C)/C=C/C=C(C)/C=C/C1=C(C)CCCC1(C)C

>  <Discrete Label>
inactive

$$$$

API: the following record is the query input.
stdin: Recorded call for CCCCCCCCNC(C)C(O)c1ccc(SC(C)C)cc1 (stereo unspecified) ?
stdout: active

* * *

- Assay Method Text: chemical genetic growth profiling, strain panel (AID 1159580);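 further: tested at 20 µM; growth read once vehicle control cultures reached saturation at 30 °C; 1 = growth at the plate median or of vehicle wells; lower values mean less growth of the strain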
- Condition Description: S. cerevisiae deletion strains, growth OD, locus YNR052C, strain pop2, hits give low values
In all, about 5,500 compounds went through this assay and about 2,000 (36%) were called active. Another 18% or so got no clear call; they are omitted. This is one part of the list.
Readout Kind: normalized growth
Answers are plain numbers.

>  <Compound>
CCCCCCCCNC(C)C(O)c1ccc(SC(C)C)cc1 (configuration not stated)

>  <normalized growth>
0.0594

$$$$
>  <Compound>
CCCCCCCCCCCCCCCC(=O)OC/C=C(C)/C=C/C=C(C)/C=C/C1=C(C)CCCC1(C)C

>  <normalized growth>
0.998

$$$$
>  <Compound>
CCOC(=O)C(C)(C)Oc1ccc(Cl)cc1

>  <normalized growth>
1

$$$$
>  <Compound>
CC(C)OC(=O)C(C)(C)Oc1ccc(C(=O)c2ccc(Cl)cc2)cc1

>  <normalized growth>
0.991

$$$$
>  <Compound>
CN1CCCN=C1COC(=O)C(O)(c1ccccc1)C1CCCCC1 (configuration not stated)

>  <normalized growth>
0.999

$$$$

Look up normalized growth for the entries below, preserving their order.
1. CN[C@@H](C)[C@@H](O)c1ccccc1
2. CC(N)C(=O)OC(C)(C)Cc1ccc(Cl)cc1 (configuration not stated)

stdout:
1. 0.997
2. 0.986

The origin of these recorded values is PubChem BioAssay AID1159580.
